System: CD80
Test: Evaluation of stimulus to activate innate immune system: expression of CD80 in cultured mice spleen cells (flow cytometry)
Conditions: amphipathic substance alone
So I've got a bunch of compounds here, and I need their CD80 MFI, Amphipathic substance values.
Enter your answer as a number in %; do not include the unit.

Fill in the blank: the reported CD80 MFI, Amphipathic substance of CCCCCCCCCCCC(=O)OC[C@H](COP(=O)([O-])OCC[N+](C)(C)C)OC(=O)CCCCCCCCCCC is ____.
38.5

Fill in the blank: the reported CD80 MFI, Amphipathic substance of Cc1c(C)c2c(c(C)c1O)CCC(C)(CCCC(C)CCCC(C)CCCC(C)C)O2 (racemic) is ____.
43.8

Fill in the blank: the reported CD80 MFI, Amphipathic substance of CCCCCCCCCC(=O)OC[C@H](COP(=O)([O-])OCC[N+](C)(C)C)OC(=O)CCCCCCCCC is ____.
36.5

Fill in the blank: the reported CD80 MFI, Amphipathic substance of CCCCCCCCCCCC(=O)OCCOCCOCCOCCOCCOCCOCCOCCOCCOCCOCCOCCOCCOCCOCCOCCOCCOCCOCCOCCOCC(OCCOCCOCCOCCOCCOCCOCCOCCOCCOCCOCCOCCOCCOCCOCCOCCOCCOCCOCCOCCO)C1OCC(OCCOCCOCCOCCOCCOCCOCCOCCOCCOCCOCCOCCOCCOCCOCCOCCOCCOCCOCCOCCO)C1OCCOCCOCCOCCOCCOCCOCCOCCOCCOCCOCCOCCOCCOCCOCCOCCOCCOCCOCCOCCO (stereo not shown) is ____.
38.0
